Just for reference, paper PMC7412453 is where these values come from.

System: L. brasiliensis promastigotes
Assay remarks: Leishmanicidal activity against L. brasiliensis promastigotes (XTT)
Experimental context: L. brasiliensis SI (selectivity index, cytotoxicity/anti-protozoal activity), RAW cell IC50 / L. brasiliensis IC50
Parameter: selectivity ratio at 72 h. Scope: all listed entries.
// return just the number, without any unit appended

Input line: Using the record for COCc1ccc2c(c1)-c1cc(OC)ccc1OC2(C)C [3c] , report its selectivity ratio at 72 h.
Output line: 0.7

Next:
Input line: I'd like to know its selectivity ratio at 72 h. The compound in question is COc1ccc2c(c1)-c1cc(CNCCC(C)C)ccc1C(C)(C)O2 [3h]
Output line: 0.5

Input line: # selectivity ratio at 72 h lookup, item COc1ccc2c(c1)-c1cc(COC(=O)CC(C)(C)C)ccc1C(C)(C)O2 [4f]
Output line: 1

* * *

Assay remarks: Cytotoxicity in RAW cells (Resazurin)
Type: cell-based, murine
Experimental context: mouse, RAW 264.7 macrophage cells (ATCC-TIB71); RAW cells, 72 h at 37 °C, Resazurin, triplicate; read-out: Cytotoxicity IC50
Endpoint: IC50 at 72 h
Could you kindly put the unit after your number?

Input line: State the recorded IC50 at 72 h for this entry: CCCCCCCCCCCCCCCCOP(=O)([O-])OCC[N+](C)(C)C [Miltefosine, reference compound]
Output line: 76.6 µM

* * *

Test system: L. amazoniensis promastigotes
Assay remarks: Leishmanicidal activity against L. amazoniensis promastigotes (XTT)
Decision: selectivity ratio at 72 h compared against 1; not below it gives MET, below it gives NOT MET.

Input line: Has COc1ccc2c(c1)-c1cc(COC(=O)C3CCCCC3)ccc1C(C)(C)O2 [4i] a recorded selectivity ratio at 72 h greater than or equal to 1?
Output line: MET

***
Input line: Quick check, selectivity ratio at 72 h >= 1? COc1ccc2c(c1)-c1cc(C)ccc1C(C)(C)O2 [3a]
Output line: MET

Input line: Quick check: does COc1ccc2c(c1)-c1cc(CO)ccc1C(C)(C)O2 [compound 1] have selectivity ratio at 72 h greater than or equal to 1?
Output line: NOT MET

Input line: Does the compound COc1ccc2c(c1)-c1cc(COC(=O)CCC3CCCC3)ccc1C(C)(C)O2 [4h] have recorded selectivity ratio at 72 h that is 1 or more?
Output line: MET

Input line: Check if selectivity ratio at 72 h >= 1 (inclusive). Item: CCCCCC(=O)OCc1ccc2c(c1)-c1cc(OC)ccc1OC2(C)C [4g]
Output line: MET

Input line: Record COc1ccc2c(c1)-c1cc(COC(C)C)ccc1C(C)(C)O2 [3d] ; criterion: selectivity ratio at 72 h no lower than 1. Met?
Output line: NOT MET

* * *

log10 IC50 at 72 h listing for selected compounds.
Assay remarks: Cytotoxicity in RAW cells (Resazurin)
Format: cell-based, murine
Experimental context: mouse
Scale: decimal log of IC50 at 72 h, IC50 at 72 h in µM.

Input line: Name the recorded log10 IC50 at 72 h for COc1ccc2c(c1)-c1cc(C(C)=O)ccc1C(C)(C)O2 .
Output line: 1.50

Input line: # query: log10 IC50 at 72 h of entry C=CC(=O)OCc1ccc2c(c1)-c1cc(OC)ccc1OC2(C)C
Output line: 1.60

Input line: May I ask what log10 IC50 at 72 h has been recorded for COc1ccc2c(c1)-c1cc(COC(=O)CC(C)C)ccc1C(C)(C)O2 ?
Output line: 1.45

Input line: Which measured log10 IC50 at 72 h value corresponds to COc1ccc2c(c1)-c1cc(C(N)=O)ccc1C(C)(C)O2 ?
Output line: 1.70

Input line: Query (compound): COc1ccc2c(c1)-c1cc(CNCCC(C)C)ccc1C(C)(C)O2 ; field requested: log10 IC50 at 72 h
Output line: 0.87

Input line: Item COc1ccc2c(c1)-c1cc(C(=N)NO)ccc1C(C)(C)O2 has what recorded log10 IC50 at 72 h?
Output line: 1.42

Input line: Return reported log10 IC50 at 72 h; argument: COc1ccc2c(c1)-c1cc(C)ccc1C(C)(C)O2
Output line: 2.00

Input line: Item COc1ccc2c(c1)-c1cc(COC(=O)c3ccccc3)ccc1C(C)(C)O2 has what recorded log10 IC50 at 72 h?
Output line: 1.44

Input line: May I ask what log10 IC50 at 72 h has been recorded for COc1ccc2c(c1)-c1cc(COC(=O)c3ccco3)ccc1C(C)(C)O2 ?
Output line: 1.48

Input line: Report log10 IC50 at 72 h for COC(=O)c1ccc2c(c1)-c1cc(OC)ccc1OC2(C)C please.
Output line: 1.58

Input line: Return reported log10 IC50 at 72 h; argument: COc1ccc2c(c1)-c1cc(COC(C)=O)ccc1C(C)(C)O2
Output line: 1.51

Input line: Request the reported log10 IC50 at 72 h associated with COc1ccc2c(c1)-c1cc(CNCC(C)C)ccc1C(C)(C)O2
Output line: 1.09

Input line: Value lookup for log10 IC50 at 72 h; key = CCCC(=O)OCc1ccc2c(c1)-c1cc(OC)ccc1OC2(C)C
Output line: 2.01

Input line: Request the reported log10 IC50 at 72 h associated with COCc1ccc2c(c1)-c1cc(OC)ccc1OC2(C)C
Output line: 1.52

Input line: Sample COc1ccc2c(c1)-c1cc(COC(=O)C(C)C)ccc1C(C)(C)O2 — what was its log10 IC50 at 72 h?
Output line: 1.42

Input line: GET /values?readout=log10 IC50 at 72 h&item= COc1ccc2c(c1)-c1cc(CCl)ccc1C(C)(C)O2
Output line: 1.77
